# Target: Voltage-dependent N-type calcium channel subunit alpha-1B (Rattus norvegicus, UniProt Q02294); note: assay procedure not described here
# Sequence (Q02294 whole entry): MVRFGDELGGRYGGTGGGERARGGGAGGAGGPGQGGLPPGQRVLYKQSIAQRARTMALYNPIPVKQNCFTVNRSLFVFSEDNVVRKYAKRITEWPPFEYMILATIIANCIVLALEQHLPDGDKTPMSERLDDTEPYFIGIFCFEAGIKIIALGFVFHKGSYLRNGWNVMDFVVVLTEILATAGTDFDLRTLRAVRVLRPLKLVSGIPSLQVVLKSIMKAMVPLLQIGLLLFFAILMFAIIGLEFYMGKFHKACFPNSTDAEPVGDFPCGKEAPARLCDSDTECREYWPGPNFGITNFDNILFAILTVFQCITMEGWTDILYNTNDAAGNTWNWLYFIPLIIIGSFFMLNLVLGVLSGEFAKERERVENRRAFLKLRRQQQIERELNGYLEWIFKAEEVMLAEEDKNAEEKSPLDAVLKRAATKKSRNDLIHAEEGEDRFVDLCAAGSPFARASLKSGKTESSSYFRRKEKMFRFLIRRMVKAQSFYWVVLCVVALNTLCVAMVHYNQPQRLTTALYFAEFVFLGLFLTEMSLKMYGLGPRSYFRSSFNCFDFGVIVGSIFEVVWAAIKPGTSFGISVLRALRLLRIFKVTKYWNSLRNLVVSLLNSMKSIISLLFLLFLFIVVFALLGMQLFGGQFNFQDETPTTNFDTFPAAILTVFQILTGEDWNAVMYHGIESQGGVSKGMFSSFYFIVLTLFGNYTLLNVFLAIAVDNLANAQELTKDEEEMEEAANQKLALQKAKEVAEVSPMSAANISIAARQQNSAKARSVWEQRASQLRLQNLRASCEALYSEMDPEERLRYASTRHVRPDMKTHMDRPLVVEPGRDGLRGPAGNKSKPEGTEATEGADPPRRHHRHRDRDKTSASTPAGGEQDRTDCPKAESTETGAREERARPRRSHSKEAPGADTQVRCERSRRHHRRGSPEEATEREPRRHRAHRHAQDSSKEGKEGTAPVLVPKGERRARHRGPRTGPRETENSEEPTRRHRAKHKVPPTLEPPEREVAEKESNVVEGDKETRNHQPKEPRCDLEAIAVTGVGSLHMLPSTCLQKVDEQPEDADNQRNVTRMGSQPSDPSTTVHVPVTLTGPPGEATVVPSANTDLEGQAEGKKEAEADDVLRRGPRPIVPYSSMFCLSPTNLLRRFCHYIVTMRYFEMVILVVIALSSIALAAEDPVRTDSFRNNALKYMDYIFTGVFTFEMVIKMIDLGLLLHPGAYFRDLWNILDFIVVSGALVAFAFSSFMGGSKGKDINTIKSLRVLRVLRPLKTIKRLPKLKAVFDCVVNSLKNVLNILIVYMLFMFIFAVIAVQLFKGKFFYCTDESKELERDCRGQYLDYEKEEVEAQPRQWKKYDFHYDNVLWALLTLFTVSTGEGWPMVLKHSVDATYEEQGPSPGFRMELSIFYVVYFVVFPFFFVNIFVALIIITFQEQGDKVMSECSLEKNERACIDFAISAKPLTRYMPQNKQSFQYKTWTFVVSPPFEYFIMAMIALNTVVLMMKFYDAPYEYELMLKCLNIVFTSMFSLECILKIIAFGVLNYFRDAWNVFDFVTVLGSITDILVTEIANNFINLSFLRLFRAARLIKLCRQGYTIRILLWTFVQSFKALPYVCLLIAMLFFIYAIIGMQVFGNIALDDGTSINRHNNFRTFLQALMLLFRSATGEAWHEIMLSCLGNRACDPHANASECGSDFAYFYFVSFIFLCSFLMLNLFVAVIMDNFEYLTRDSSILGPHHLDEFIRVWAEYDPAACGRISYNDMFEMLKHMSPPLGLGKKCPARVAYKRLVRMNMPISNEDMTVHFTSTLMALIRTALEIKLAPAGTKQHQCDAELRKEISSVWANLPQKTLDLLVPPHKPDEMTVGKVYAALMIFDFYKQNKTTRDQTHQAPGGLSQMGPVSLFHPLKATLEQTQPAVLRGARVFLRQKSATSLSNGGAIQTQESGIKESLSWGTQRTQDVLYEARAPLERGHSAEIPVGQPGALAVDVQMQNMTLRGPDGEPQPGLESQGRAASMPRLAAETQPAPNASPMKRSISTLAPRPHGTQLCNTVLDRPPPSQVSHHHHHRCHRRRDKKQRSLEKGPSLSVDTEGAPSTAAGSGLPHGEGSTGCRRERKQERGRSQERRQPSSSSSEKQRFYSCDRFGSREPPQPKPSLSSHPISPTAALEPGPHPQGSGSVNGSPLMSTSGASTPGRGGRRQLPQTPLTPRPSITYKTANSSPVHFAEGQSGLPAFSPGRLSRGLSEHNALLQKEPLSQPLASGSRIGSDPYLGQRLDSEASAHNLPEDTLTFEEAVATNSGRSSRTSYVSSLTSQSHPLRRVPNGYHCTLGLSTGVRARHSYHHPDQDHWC
# Type: functional
Endpoint: AC50

[
  {
    "Molecule": "Cc1c(C(=O)Nc2ccc(N3C[C@@H](C)O[C@@H](C)C3)nc2)cccc1-c1ccc(OC(F)(F)F)cc1",
    "AC50": "> 10 µM"
  },
  {
    "Molecule": "CN(C)C(=O)OC1N=C(c2ccccc2)c2cc(Cl)ccc2N(C)C1=O (centres undefined)",
    "AC50": "> 10 µM"
  },
  {
    "Molecule": "O=C1CCC(N2C(=O)c3ccccc3C2=O)C(=O)N1 (centres undefined) [THALIDOMIDE]",
    "AC50": "> 10 µM"
  },
  {
    "Molecule": "CCN(CC)CCOC(=O)c1ccc(N)cc1",
    "AC50": "> 10 µM"
  },
  {
    "Molecule": "NC(=O)C[S+]([O-])C(c1ccccc1)c1ccccc1 (centres undefined)",
    "AC50": "> 10 µM"
  },
  {
    "Molecule": "C=C1C[C@@H]2[C@H](CC[C@]3(C)C(=O)CC[C@@H]23)[C@@]2(C)C=CC(=O)C=C12",
    "AC50": "> 10 µM"
  },
  {
    "Molecule": "Cc1cc(-c2ccccc2)nnc1NCCN1CCOCC1",
    "AC50": "> 10 µM"
  },
  {
    "Molecule": "O=C(O)CCCc1ccccc1",
    "AC50": "> 10 µM"
  }
]

Input line: Recorded AC50 for CN[C@@H](C)[C@H](O)c1ccccc1 , please?
Output line: > 10 µM

---

# Target: 3',5'-cyclic-AMP phosphodiesterase 4D (Homo sapiens); note: assay procedure not described here
# Sequence (Q08499 whole entry): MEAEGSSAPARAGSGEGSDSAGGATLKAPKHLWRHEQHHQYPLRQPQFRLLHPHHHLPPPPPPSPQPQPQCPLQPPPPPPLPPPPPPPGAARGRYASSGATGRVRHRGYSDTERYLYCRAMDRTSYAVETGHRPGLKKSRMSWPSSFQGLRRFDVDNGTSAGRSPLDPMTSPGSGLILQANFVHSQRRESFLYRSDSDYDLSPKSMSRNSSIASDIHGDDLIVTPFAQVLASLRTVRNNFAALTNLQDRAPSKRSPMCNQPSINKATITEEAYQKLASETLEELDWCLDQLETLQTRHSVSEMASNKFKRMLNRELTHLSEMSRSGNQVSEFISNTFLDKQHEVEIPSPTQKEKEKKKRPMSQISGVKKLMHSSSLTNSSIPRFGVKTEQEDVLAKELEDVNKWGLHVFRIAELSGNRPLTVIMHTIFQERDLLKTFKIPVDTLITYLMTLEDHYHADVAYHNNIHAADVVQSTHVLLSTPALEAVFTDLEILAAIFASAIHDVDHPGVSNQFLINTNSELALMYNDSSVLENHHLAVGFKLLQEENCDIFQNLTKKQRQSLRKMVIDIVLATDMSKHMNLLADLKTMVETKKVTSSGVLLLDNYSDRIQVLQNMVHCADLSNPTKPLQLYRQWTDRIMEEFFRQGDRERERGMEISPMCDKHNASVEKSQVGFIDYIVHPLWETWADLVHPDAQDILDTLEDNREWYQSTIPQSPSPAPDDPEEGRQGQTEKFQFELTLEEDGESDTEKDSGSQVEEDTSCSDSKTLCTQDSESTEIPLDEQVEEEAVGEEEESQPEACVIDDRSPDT
# Type: functional
Endpoint: AC50

Observe how each entry below is paired with its result.
[
  {
    "Molecule": "CS(=O)(=O)Nc1cc2occ(NC=O)c(=O)c2cc1Oc1ccccc1 [IGURATIMOD]",
    "Endpoint": "AC50",
    "Result": "9.8 µM"
  },
  {
    "Molecule": "CC(=O)O[C@@]12CO[C@@H]1C[C@H](O)[C@@]1(C)C(=O)[C@H](O)C3=C(C)[C@@H](OC(=O)[C@H](O)[C@@H](NC(=O)OC(C)(C)C)c4ccccc4)C[C@@](O)([C@@H](OC(=O)c4ccccc4)[C@H]21)C3(C)C [DOCETAXEL ANHYDROUS]",
    "Endpoint": "AC50",
    "Result": "> 30 µM"
  }
]

For each of the molecules below, state AC50.
1. Cc1ccc(C(=O)c2cc(O)c(O)c([N+](=O)[O-])c2)cc1 [TOLCAPONE]
2. C[N+](C)(C)CC(=O)O [BETAINE]

Output line:
1: > 30 µM; 2: > 30 µM

---

# Target: Beta-1 adrenergic receptor (Homo sapiens, UniProt P08588); note: assay procedure not described here
# Sequence (P08588 whole entry): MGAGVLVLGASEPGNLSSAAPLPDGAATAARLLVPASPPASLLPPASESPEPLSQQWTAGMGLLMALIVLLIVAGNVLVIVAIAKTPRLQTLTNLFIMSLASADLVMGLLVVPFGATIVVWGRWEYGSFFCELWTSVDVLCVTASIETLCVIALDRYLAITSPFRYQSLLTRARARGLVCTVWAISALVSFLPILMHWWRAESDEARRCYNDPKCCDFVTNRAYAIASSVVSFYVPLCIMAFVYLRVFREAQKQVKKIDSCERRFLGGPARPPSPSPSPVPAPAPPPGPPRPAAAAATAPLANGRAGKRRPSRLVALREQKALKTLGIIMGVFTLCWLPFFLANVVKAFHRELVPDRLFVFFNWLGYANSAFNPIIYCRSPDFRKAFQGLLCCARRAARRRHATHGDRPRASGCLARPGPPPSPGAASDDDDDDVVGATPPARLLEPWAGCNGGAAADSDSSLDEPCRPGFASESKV
# Assay type: functional
Endpoint: AC50

[
  {
    "Molecule": "NC(=O)C[S+]([O-])C(c1ccccc1)c1ccccc1 (centres undefined) [MODAFINIL]",
    "Endpoint": "AC50",
    "Result": "> 10 µM"
  },
  {
    "Molecule": "NS(=O)(=O)c1cc(-c2nnn[nH]2)c(NCc2cccs2)cc1Cl [AZOSEMIDE]",
    "Endpoint": "AC50",
    "Result": "> 30 µM"
  },
  {
    "Molecule": "CC(C)NCC1CCc2cc(CO)c([N+](=O)[O-])cc2N1 (centres undefined) [OXAMNIQUINE]",
    "Endpoint": "AC50",
    "Result": "> 10 µM"
  },
  {
    "Molecule": "Oc1ncnc2[nH]ncc12 [ALLOPURINOL]",
    "Endpoint": "AC50",
    "Result": "> 10 µM"
  },
  {
    "Molecule": "CCOC(=O)[C@H](CCc1ccccc1)N[C@H]1CCCN2CCC[C@@H](C(=O)O)N2C1=O [CILAZAPRIL]",
    "Endpoint": "AC50",
    "Result": "> 30 µM"
  },
  {
    "Molecule": "CCOC(=O)[C@H](CCc1ccccc1)N[C@@H](C)C(=O)N1CCC[C@H]1C(=O)O",
    "Endpoint": "AC50",
    "Result": "> 10 µM"
  },
  {
    "Molecule": "CCCCCCC(C)(C)c1cc(O)c2c(c1)OC(C)(C)C1CCC(=O)CC21 (centres undefined) [NABILONE]",
    "Endpoint": "AC50",
    "Result": "> 30 µM"
  },
  {
    "Molecule": "CC(=O)N[C@H]1[C@H]([C@H](O)[C@H](O)CO)OC(C(=O)O)=C[C@@H]1N=C(N)N [ZANAMIVIR]",
    "Endpoint": "AC50",
    "Result": "> 30 µM"
  }
]

Input line: Recorded AC50 for CN(C)C(=O)OC1N=C(c2ccccc2)c2cc(Cl)ccc2N(C)C1=O (centres undefined) [CAMAZEPAM] , please?
Output line: > 10 µM

---

# Target: Muscarinic acetylcholine receptor M1 (Homo sapiens, UniProt P11229); note: assay procedure not described here
# Sequence (P11229 whole entry): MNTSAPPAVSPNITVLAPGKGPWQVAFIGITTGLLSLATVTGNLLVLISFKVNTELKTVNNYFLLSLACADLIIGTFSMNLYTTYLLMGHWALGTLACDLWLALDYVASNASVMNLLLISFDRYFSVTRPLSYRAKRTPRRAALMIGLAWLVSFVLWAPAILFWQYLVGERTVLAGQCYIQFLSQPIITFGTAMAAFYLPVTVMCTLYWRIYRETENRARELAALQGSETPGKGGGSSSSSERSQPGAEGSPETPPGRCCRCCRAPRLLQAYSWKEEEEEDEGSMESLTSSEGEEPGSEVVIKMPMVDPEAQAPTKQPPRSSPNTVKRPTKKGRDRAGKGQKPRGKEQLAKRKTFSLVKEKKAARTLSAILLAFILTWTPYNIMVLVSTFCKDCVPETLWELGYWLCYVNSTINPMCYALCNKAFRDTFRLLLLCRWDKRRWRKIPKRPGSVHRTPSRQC
# Format: functional
Endpoint: AC50

For each of the compounds below, state AC50.
1. NS(=O)(=O)c1cc(Cl)c(Cl)c(S(N)(=O)=O)c1 [DICHLORPHENAMIDE]
2. O=C(NC[C@H]1CN(c2ccc(N3CCOCC3=O)cc2)C(=O)O1)c1ccc(Cl)s1 [RIVAROXABAN]
3. O=C(CCCCC(=O)Nc1c(I)cc(I)c(C(=O)O)c1I)Nc1c(I)cc(I)c(C(=O)O)c1I [IODIPAMIDE]
4. O=C(OCCN1CCOCC1)c1cccnc1Nc1cccc(C(F)(F)F)c1 [MORNIFLUMATE]
5. NS(=O)(=O)c1cc(-c2nnn[nH]2)c(NCc2cccs2)cc1Cl [AZOSEMIDE]

Output line:
> 10 µM
> 30 µM
> 10 µM
> 30 µM
> 30 µM

Input line: Recorded AC50 for C1COC(NC(C2CC2)C2CC2)=N1 [RILMENIDINE] , please?
Output line: > 10 µM

---

Target or system Mu-type opioid receptor (Homo sapiens, UniProt P35372); recorded quantity AC50. Note: assay procedure not described here.

For each of the compounds below, state AC50.
1. CN1C(=O)CC(=O)N(c2ccccc2)c2cc(Cl)ccc21
2. CC(Cc1ccccc1)NCCC(c1ccccc1)c1ccccc1 (stereo not given)
3. Cc1ccc(-c2nc3ccc(C)cn3c2CC(=O)N(C)C)cc1
4. [H]/N=C(/N)c1ccc(NCc2nc3cc(C(=O)N(CCC(=O)O)c4ccccn4)ccc3n2C)cc1

Output line:
> 30 µM
1.8 µM
> 10 µM
> 30 µM

For each of the compounds below, state AC50.
1. O=C(O)CCn1c2c(c3ccccc31)C[C@H](NS(=O)(=O)c1ccc(F)cc1)CC2
2. C1COC(NC(C2CC2)C2CC2)=N1
3. NC(CO)C(=O)NNCc1ccc(O)c(O)c1O (stereo not given) [BENSERAZIDE]
4. CN[C@@H](C)[C@H](O)c1ccccc1
5. NS(=O)(=O)c1cc2c(cc1Cl)NCNS2(=O)=O [HYDROCHLOROTHIAZIDE]

Output line:
1: > 30 µM; 2: > 30 µM; 3: > 10 µM; 4: > 30 µM; 5: > 10 µM

Input line: Recorded AC50 for COc1ccc2cccc(CCNC(C)=O)c2c1 , please?
Output line: > 30 µM

---

# Target: Muscarinic acetylcholine receptor M2 (Homo sapiens); note: assay procedure not described here
# Sequence (P08172 whole entry): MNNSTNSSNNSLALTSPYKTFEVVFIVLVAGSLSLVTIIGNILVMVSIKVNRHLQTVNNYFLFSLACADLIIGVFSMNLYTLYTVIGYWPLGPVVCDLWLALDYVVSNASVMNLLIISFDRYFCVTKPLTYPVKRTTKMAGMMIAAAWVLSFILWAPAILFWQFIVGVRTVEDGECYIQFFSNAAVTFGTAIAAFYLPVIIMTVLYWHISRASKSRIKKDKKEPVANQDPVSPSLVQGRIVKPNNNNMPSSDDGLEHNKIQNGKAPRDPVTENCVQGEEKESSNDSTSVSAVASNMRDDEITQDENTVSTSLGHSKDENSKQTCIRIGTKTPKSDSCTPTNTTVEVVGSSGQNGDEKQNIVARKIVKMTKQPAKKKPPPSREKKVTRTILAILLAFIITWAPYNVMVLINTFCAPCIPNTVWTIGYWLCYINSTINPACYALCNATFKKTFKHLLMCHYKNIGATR
Provide the recorded AC50 for the entries that follow.

Observe how each entry below is paired with its result.
[
  {
    "Compound": "CC(=O)OC(C)C[N+](C)(C)C (stereo not given) [METHACHOLINE]",
    "AC50": "2.22 µM"
  },
  {
    "Compound": "CCOC(=O)c1ccc(O)cc1 [ETHYLPARABEN]",
    "AC50": "> 30 µM"
  },
  {
    "Compound": "COc1ccc(-c2cc(=O)c3c(O)cc(O[C@@H]4O[C@H](CO[C@@H]5O[C@@H](C)[C@H](O)[C@@H](O)[C@H]5O)[C@@H](O)[C@H](O)[C@H]4O)cc3o2)cc1O [DIOSMIN]",
    "AC50": "> 30 µM"
  },
  {
    "Compound": "O=C1CC[C@@]2(O)[C@H]3Cc4ccc(O)c5c4[C@@]2(CCN3CC2CC2)[C@H]1O5 [NALTREXONE]",
    "AC50": "> 30 µM"
  }
]

# next compound below
Input line: Recorded AC50 for CS(=O)(=O)c1ccc([C@@H](O)[C@@H](CO)NC(=O)C(Cl)Cl)cc1 [THIAMPHENICOL] , please?
Output line: > 30 µM
